biological target: PKC isoenzyme α (Homo sapiens); construct: made in house; host or cells: baculovirus-insect cell expression system; assay: Protein kinase C inhibition assay, PKC isoenzyme α; type: biochemical; details: read-out: IC50 PKC α
measured metric: IC50 (µM)

1) Cc1cc(C)nc(NS(=O)(=O)c2ccc(N=C3C=C(Nc4ccc(S(=O)(=O)Nc5cc(C)cc(C)n5)cc4)C(=O)c4ccccc43)cc2)c1 = 90
2) O=C1C(Nc2ccc(S(=O)(=O)Nc3ncccn3)cc2)=CC(=Nc2ccc(S(=O)(=O)Nc3ncccn3)cc2)c2ccccc21 [Compound 6k] = 116
3) O=C1C(Nc2ccc(S(=O)(=O)Nc3ncccn3)cc2)=CC(=Nc2ccc(S(=O)(=O)Nc3ncccn3)cc2)c2ccccc21 [Compound 3k] = 113
4) N=C(N)NS(=O)(=O)c1ccc(N=C2C=C(Nc3ccc(S(=O)(=O)NC(=N)N)cc3)C(=O)c3ccccc32)cc1 = 125
5) Cc1nnc(NS(=O)(=O)c2ccc(N=C3C=C(Nc4ccc(S(=O)(=O)Nc5nnc(C)s5)cc4)C(=O)c4ccccc43)cc2)s1 [Compound 6e] = 109

---

molecular target: PKC isoenzyme ζ (Homo sapiens); construct: made in house; host or cells: baculovirus-insect cell expression system; experiment: Protein kinase C inhibition assay, PKC isoenzyme ζ; format: biochemical; conditions: read-out: IC50 PKC .zeta.
pIC50: −log10 of the molar value.
measured metric: pIC50

1) O=C1C(Nc2ccc(S(=O)(=O)Nc3ccc(Cl)nn3)cc2)=CC(=Nc2ccc(S(=O)(=O)Nc3ccc(Cl)nn3)cc2)c2ccccc21 [Compound 3l] = 4.55
2) Cc1nnc(NS(=O)(=O)c2ccc(N=C3C=C(Nc4ccc(S(=O)(=O)Nc5nnc(C)s5)cc4)C(=O)c4ccccc43)cc2)s1 = 4.70
3) Cc1cc(C)nc(NS(=O)(=O)c2cc(N=C3C=C(Nc4ccc(C)c(S(=O)(=O)Nc5cc(C)cc(C)n5)c4)C(=O)c4ccccc43)ccc2C)c1 [Compound 3ag] = 4.55

---

biological target: PKC isoenzyme ζ (Homo sapiens, UniProt Q05513); construct: made in house; host or cells: baculovirus-insect cell expression system; experiment: Protein kinase C inhibition assay, PKC isoenzyme ζ; type: biochemical; details: read-out: IC50 PKC .zeta.
Sequence (Q05513 whole entry): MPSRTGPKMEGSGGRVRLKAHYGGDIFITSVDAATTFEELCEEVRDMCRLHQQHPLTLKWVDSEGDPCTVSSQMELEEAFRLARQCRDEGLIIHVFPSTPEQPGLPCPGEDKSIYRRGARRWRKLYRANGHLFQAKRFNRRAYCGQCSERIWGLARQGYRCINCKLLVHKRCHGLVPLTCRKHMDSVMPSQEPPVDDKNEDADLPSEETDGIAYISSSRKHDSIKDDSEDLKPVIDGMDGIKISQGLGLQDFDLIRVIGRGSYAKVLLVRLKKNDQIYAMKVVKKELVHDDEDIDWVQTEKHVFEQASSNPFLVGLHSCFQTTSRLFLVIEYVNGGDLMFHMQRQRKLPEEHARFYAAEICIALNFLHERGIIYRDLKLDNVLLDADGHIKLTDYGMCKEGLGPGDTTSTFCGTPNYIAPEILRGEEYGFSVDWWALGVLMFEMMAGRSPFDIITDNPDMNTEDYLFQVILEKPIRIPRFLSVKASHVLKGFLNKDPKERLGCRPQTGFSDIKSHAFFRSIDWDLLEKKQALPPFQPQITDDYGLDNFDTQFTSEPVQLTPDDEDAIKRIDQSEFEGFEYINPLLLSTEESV
pIC50: −log10 of the molar value.
Below: a set of entries, each annotated with reported pIC50.

Answered examples (2):
1. O=C1C(Nc2ccc(S(=O)(=O)NCc3ccccn3)cc2)=CC(=Nc2ccc(S(=O)(=O)NCc3ccccn3)cc2)c2ccccc21 = < 3.82
2. Cc1cc(C)nc(NC(=O)c2ccc(N=C3C=C(Nc4ccc(C(=O)Nc5nc(C)cc(C)n5)cc4)C(=O)c4ccccc43)cc2)n1 = < 3.82

Next molecule, pIC50 to be filled in.
Input line: Give reported pIC50 value for COc1ccc(NS(=O)(=O)c2ccc(N=C3C=C(Nc4ccc(S(=O)(=O)Nc5ccc(OC)nn5)cc4)C(=O)c4ccccc43)cc2)nn1 [Compound 3j]
Output line: < 3.82
